Data provenance: patent US11472778B2

Target: GT1a D168A NS3/4A protease (UniProt P27958, C1185S/D1194A, species not given)
Construct: Ki (nM) GT1a D168A NS3/4A Protease
Assay type: biochemical, Hepatitis C virus
Settings: read-out: Ki (nM) GT1a D168A NS3/4A Protease; Table 3
Just a reminder that ties go to no (0): only Ki strictly below 200 nM counts as yes (1).

Data request: Quick check: does CCc1nc2ccccc2nc1O[C@@H]1C[C@H]2C(=O)N[C@]3(C(=O)NS(=O)(=O)C4CC4)C[C@H]3/C=C\CCCCC[C@H](NC(=O)OC3CCCC3)C(=O)N2C1 [Compound 22g] have Ki under 200 nM?
Data returned: yes (1)

Data request: Consider O=C(N[C@H]1CCCCC/C=C\[C@@H]2C[C@@]2(C(=O)NS(=O)(=O)C2CC2)NC(=O)[C@@H]2C[C@@H](Oc3nc4ccccc4nc3-c3cccs3)CN2C1=O)OC1CCCC1 [Compound 22f] . Does its Ki lie strictly below 200 nM?
Data returned: no (0)

Data request: Consider the compound COc1ccc2nc(Cl)c(O[C@@H]3C[C@H]4C(=O)N[C@]5(C(=O)NS(=O)(=O)C6CC6)C[C@H]5/C=C\CCCCC[C@H](NC(=O)OC(C)(C)C)C(=O)N4C3)nc2c1 [Compound 18c] . Is its Ki strictly less than 200 nM?
Data returned: yes (1)

Data request: Threshold test, Ki < 200 nM: CC(C)(C)OC(=O)N[C@H]1CCCCC/C=C\[C@@H]2C[C@@]2(C(=O)NS(=O)(=O)C2CC2)NC(=O)[C@@H]2C[C@@H](Oc3nc4ccccc4nc3-c3cccs3)CN2C1=O [Compound 18f, reference compound]
Data returned: no (0)

Data request: Is the reported Ki for COc1ccc2nc(C(C)C)c(O[C@@H]3C[C@H]4C(=O)N[C@]5(C(=O)NS(=O)(=O)C6(C)CC6)C[C@H]5/C=C\CCCCC[C@H](NC(=O)OC(C)(C)C)C(=O)N4C3)nc2c1 [Compound 19e] strictly below 200 nM?
Data returned: no (0)

New cases:
Data request: I wonder whether COc1ccc2nc(C(C)C)c(O[C@@H]3C[C@H]4C(=O)N[C@]5(C(=O)NS(=O)(=O)C6CC6)C[C@H]5/C=C\CCCCC[C@H](NC(=O)OC(C)(C)C)C(=O)N4C3)nc2c1 [Compound 18e] has Ki below 200 nM. Can you tell?
Data returned: no (0)

Data request: Confirm or reject: Ki of COc1ccc2nc(C(C)C)c(O[C@@H]3C[C@H]4C(=O)N[C@]5(C(=O)NS(=O)(=O)C6CC6)C[C@H]5/C=C\CCCCC[C@H](NC(=O)OC5CCCC5)C(=O)N4C3)nc2c1 [Compound 22e] lies strictly below 200 nM
Data returned: yes (1)

Data request: Does the reported Ki of the following compound sit strictly below 200 nM? CCc1nc2ccccc2nc1O[C@@H]1C[C@H]2C(=O)N[C@]3(C(=O)NS(=O)(=O)C4CC4)C[C@H]3/C=C\CCCCC[C@H](NC(=O)OC(C)(C)C)C(=O)N2C1 [Compound 18g]
Data returned: yes (1)

----------
Consider the following molecules and their measured EC50 readings.
Tested on: HCV replicon D168V variant in Huh7 cells
Assay: microbe, parasite or virus in culture
Assay type: cell-based, Hepatitis C virus
Conditions: Hepatitis C virus, Huh-7, read-out: Replicon EC50 (nM) D168V, Table 4

Data request: # EC50 lookup, item COc1ccc2nc(Cl)c(O[C@@H]3C[C@H]4C(=O)N[C@]5(C(=O)NS(=O)(=O)C6(C)CC6)C[C@H]5/C=C\CCCCC[C@H](NC(=O)OC5CCCC5)C(=O)N4C3)nc2c1 [Compound 23c]
Data returned: 1.09 nM

Data request: Field request: EC50 | item: C=C[C@@H]1C[C@]1(NC(=O)[C@@H]1C[C@@H]2CN1C(=O)[C@H](C(C)(C)C)NC(=O)O[C@@H]1C[C@H]1CCCCCc1nc3ccc(OC)cc3nc1O2)C(=O)NS(=O)(=O)C1CC1 [Compound 1, grazoprevir, reference compound]
Data returned: 5.41 nM

Data request: # query: EC50 of entry CCc1nc2ccc(OC)cc2nc1O[C@@H]1C[C@H]2C(=O)N[C@]3(C(=O)NS(=O)(=O)C4(C)CC4)C[C@H]3/C=C\CCCCC[C@H](NC(=O)OC(C)(C)C)C(=O)N2C1 [Compound 19a]
Data returned: 6.42 nM

Data request: Bench note: what EC50 did COc1ccc2nc(C(C)C)c(O[C@@H]3C[C@H]4C(=O)N[C@]5(C(=O)NS(=O)(=O)C6CC6)C[C@H]5/C=C\CCCCC[C@H](NC(=O)OC5CCCC5)C(=O)N4C3)nc2c1 [Compound 22e] show?
Data returned: 30.1 nM

Now for the molecule whose EC50 we want.
Data request: Recorded EC50 for CCc1nc2ccc(OC)cc2nc1O[C@@H]1C[C@H]2C(=O)N[C@]3(C(=O)NS(=O)(=O)C4CC4)C[C@H]3/C=C\CCCCC[C@H](NC(=O)OC3CCCC3)C(=O)N2C1 [Compound 22a] , please?
Data returned: 11.9 nM

----------
Target: GT1a D168A NS3/4A protease (UniProt P27958, C1185S/D1194A, species not given)
Construct: Ki (nM) GT1a D168A NS3/4A Protease
Type: biochemical, Hepatitis C virus
Settings: read-out: Ki (nM) GT1a D168A NS3/4A Protease; Table 3
readoutType: Ki (nM)
A number alone suffices; assume nM.

Please review the following examples before continuing.
Data request: Any idea what Ki came out for COc1ccc2nc(Cl)c(O[C@@H]3C[C@H]4C(=O)N[C@]5(C(=O)NS(=O)(=O)C6CC6)C[C@H]5/C=C\CCCCC[C@H](NC(=O)OC5CCCC5)C(=O)N4C3)nc2c1 [Compound 22c] on GT1a D168A NS3/4A protease (UniProt P27958, C1185S/D1194A, species not given)?
Data returned: 30.6

Data request: GET /values?readout=Ki&system=GT1a D168A NS3/4A protease (UniProt P27958, C1185S/D1194A, species not given)&item= CCc1nc2ccc(OC)cc2nc1O[C@@H]1C[C@H]2C(=O)N[C@]3(C(=O)NS(=O)(=O)C4CC4)C[C@H]3/C=C\CCCCC[C@H](NC(=O)OC3CCCC3)C(=O)N2C1 [Compound 22a]
Data returned: 52.3

Turning to the following compound.
Data request: Provide the documented Ki with GT1a D168A NS3/4A protease (UniProt P27958, C1185S/D1194A, species not given) as the system for CCc1nc2ccc(OC)cc2nc1O[C@@H]1C[C@H]2C(=O)N[C@]3(C(=O)NS(=O)(=O)C4CC4)C[C@H]3/C=C\CCCCC[C@H](NC(=O)OC(C)(C)C)C(=O)N2C1 [Compound 2]
Data returned: 82.4

----------
Target: wild-type GT1a NS3/4A protease (UniProt P27958, C1185S, species not given)
Construct: Ki (nM) GT1a WT NS3/4A Protease
Format: biochemical, Hepatitis C virus
Conditions: read-out: Ki (nM) GT1a WT NS3/4A Protease; Table 3
Overview of reported Ki across a group of compounds:
Numbers only here, please. The scale is nM.

Check out these entries, answers already filled in.
Data request: Ki lookup needed for CCc1nc2ccc(OC)cc2nc1O[C@@H]1C[C@H]2C(=O)N[C@]3(C(=O)NS(=O)(=O)C4CC4)C[C@H]3/C=C\CCCCC[C@H](NC(=O)OC3CCCC3)C(=O)N2C1 [Compound 22a] , thanks.
Data returned: 1.24

Data request: # Ki lookup, item CCc1nc2ccc(OC)cc2nc1O[C@@H]1C[C@H]2C(=O)N[C@]3(C(=O)NS(=O)(=O)C4(C)CC4)C[C@H]3/C=C\CCCCC[C@H](NC(=O)OC3CCCC3)C(=O)N2C1 [Compound 23a]
Data returned: 1.37

Data request: Quick one: Ki for COc1ccc2nc(C(F)(F)F)c(O[C@@H]3C[C@H]4C(=O)N[C@]5(C(=O)NS(=O)(=O)C6CC6)C[C@H]5/C=C\CCCCC[C@H](NC(=O)OC(C)(C)C)C(=O)N4C3)nc2c1 [Compound 18d] ?
Data returned: 13.3

Data request: I am curious: what Ki value has been reported for CCc1nc2ccccc2nc1O[C@@H]1C[C@H]2C(=O)N[C@]3(C(=O)NS(=O)(=O)C4CC4)C[C@H]3/C=C\CCCCC[C@H](NC(=O)OC3CCCC3)C(=O)N2C1 [Compound 22g] ?
Data returned: 1.99

# next compound below
Data request: // query Ki value for entry COc1ccc2nc(C)c(O[C@@H]3C[C@H]4C(=O)N[C@]5(C(=O)NS(=O)(=O)C6CC6)C[C@H]5/C=C\CCCCC[C@H](NC(=O)OC(C)(C)C)C(=O)N4C3)nc2c1 [Compound 18b]
Data returned: 3.4
